Values compiled from ChEMBL document CHEMBL1944535.

molecular target: Sodium-dependent serotonin transporter (Homo sapiens, UniProt P31645)
Sequence (P31645 whole entry): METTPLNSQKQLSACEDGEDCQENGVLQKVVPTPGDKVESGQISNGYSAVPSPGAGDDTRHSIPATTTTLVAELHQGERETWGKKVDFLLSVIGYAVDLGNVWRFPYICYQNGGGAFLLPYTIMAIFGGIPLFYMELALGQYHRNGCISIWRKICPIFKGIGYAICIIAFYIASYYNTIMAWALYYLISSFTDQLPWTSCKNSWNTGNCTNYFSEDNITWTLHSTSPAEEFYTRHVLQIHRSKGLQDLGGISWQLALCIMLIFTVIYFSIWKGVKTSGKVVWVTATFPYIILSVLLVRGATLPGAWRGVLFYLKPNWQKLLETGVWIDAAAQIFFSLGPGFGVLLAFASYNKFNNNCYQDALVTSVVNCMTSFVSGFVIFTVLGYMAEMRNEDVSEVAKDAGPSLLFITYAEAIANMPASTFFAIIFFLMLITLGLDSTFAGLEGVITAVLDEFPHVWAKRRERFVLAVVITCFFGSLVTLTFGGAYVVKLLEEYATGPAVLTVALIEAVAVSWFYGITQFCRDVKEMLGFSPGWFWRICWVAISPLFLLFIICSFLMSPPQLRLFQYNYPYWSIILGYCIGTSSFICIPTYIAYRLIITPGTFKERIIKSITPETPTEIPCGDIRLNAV
pKi: −log10 of the molar value.
MEASUREMENT_KIND: pKi

• O=[N+]([O-])c1ccc2nc(N3CCNCC3)ccc2c1 = 9.77

---

Record set of pIC50 for target or system UniProt:P31652.
Sequence (P31652 whole entry): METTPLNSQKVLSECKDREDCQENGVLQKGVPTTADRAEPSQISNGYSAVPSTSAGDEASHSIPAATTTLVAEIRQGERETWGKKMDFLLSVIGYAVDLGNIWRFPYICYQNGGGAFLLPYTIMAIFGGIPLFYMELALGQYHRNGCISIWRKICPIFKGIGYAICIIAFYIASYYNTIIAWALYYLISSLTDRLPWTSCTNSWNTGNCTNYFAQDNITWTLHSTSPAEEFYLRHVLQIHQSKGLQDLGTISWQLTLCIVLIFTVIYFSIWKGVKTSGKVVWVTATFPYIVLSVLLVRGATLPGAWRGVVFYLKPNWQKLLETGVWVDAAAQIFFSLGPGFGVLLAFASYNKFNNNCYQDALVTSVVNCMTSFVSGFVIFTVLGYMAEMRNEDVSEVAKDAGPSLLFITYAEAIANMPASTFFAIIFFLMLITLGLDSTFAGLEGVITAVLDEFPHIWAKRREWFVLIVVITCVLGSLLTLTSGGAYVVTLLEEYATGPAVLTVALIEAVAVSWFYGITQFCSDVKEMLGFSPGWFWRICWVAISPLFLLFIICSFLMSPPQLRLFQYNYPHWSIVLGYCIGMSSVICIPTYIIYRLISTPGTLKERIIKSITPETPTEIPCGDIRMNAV
pIC50: −log10 of the molar value.
MEASUREMENT_KIND: pIC50

- O=C1CC2(CCCC2)CC(=O)N1CCCCN1CCN(c2ccc3cc([N+](=O)[O-])ccc3n2)CC1: 4.59
- CC1(C)CC(=O)N(CCCCN2CCN(c3ccc4c(Cl)cccc4n3)CC2)C(=O)C1: 5.55
- CC1CN(c2ccc3cc([N+](=O)[O-])ccc3n2)CCN1CCCCN1C(=O)CCCC1=O (stereo not given): 6.57
- CC(=O)Nc1ccc2nc(N3CCN(CCCCN4C(=O)CC5(CCCC5)CC4=O)CC3)ccc2c1: 4.73
- CC1CN(c2ccc3ccccc3n2)CCN1CCCCN1C(=O)CC(C)(C)CC1=O (stereo not given): 6.77
